B1: MNAT1 (parent)
chain: SLREYNDFLEEVEEIVFNLTNNVD

# Variants of: B1
# Experiment: protein stability index of a GFP-peptide fusion (GPS, HEK-293T) (PSI 1-6); higher = more stable;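 also: lentivirally expressed fusions sorted by FACS into six bins by GFP to DsRed ratio, PSI derived from sequencing read proportions per bin multiplied by bin number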
# Study conditions: c terminus: a fixed tail appended
Metric: protein stability index
// print number alone

INPUT: Indicate the recorded protein stability index value for this variant: F8E
OUTPUT: 5.2

INPUT: Indicate the recorded protein stability index value for this variant: F17Y
OUTPUT: 1.91

INPUT: Indicate the recorded protein stability index value for this variant: V16Y
OUTPUT: 2.63

INPUT: Indicate the recorded protein stability index value for this variant: F17N
OUTPUT: 2.16
